percent inhibition of human Factor XI mRNA, relative to untreated control cells listing for selected substances.
System: human Factor XI mRNA
assay.text: Dose-dependent inhibition in HepG2 cells, lipofectin (Example 5)
Type: cell-based
study.conditions: 2.34 nM, 16 hours
Quick reminder: number only, in %, skip the unit.

416838 (antisense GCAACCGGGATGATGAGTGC; 5-10-5 gapmer, wing sugar chemistry not given here, further chemistry not given here) [compound 416838] :: 21

input: Item under review: 416999 (antisense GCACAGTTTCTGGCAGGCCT; 2-13-5 gapmer, wing sugar chemistry not given here, further chemistry not given here) [compound 416999] . Reported percent inhibition of human Factor XI mRNA, relative to untreated control cells?
output: 10

input: Now the same for 417003 (antisense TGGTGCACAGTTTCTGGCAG; 2-13-5 gapmer, wing sugar chemistry not given here, further chemistry not given here) [compound 417003]
output: 6

input: Now the same for 416858 (antisense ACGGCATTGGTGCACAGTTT; 5-10-5 gapmer, wing sugar chemistry not given here, further chemistry not given here) [compound 416858]
output: 11

input: Now the same for 416864 (antisense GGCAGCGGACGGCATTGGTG; 5-10-5 gapmer, wing sugar chemistry not given here, further chemistry not given here) [compound 416864]
output: 13

input: Now the same for 416925 (antisense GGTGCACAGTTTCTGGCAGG; 3-14-3 chimeric gapmer, wing sugar chemistry not given here, further chemistry not given here) [compound 416925]
output: 24
